Quick reference: composite z-score of the listed items.
# Assay Remarks: small molecules captured by biotinylated probe aFSTL3 – biochemical, small-molecule microarray, fluorescence 635/667, stem cell growth factor project, primary screen (AID 1064);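 also: measures binding of the biotinylated anti-FSTL3 antibody to printed compounds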
# Measurement Parameters: higher = more signal
Test Readout: composite z-score

compound=COC(=O)c1cccc([C@H]2OC(=CC(=O)OC(C)C)C[C@@H](c3cccc(C(=O)OC)c3)O2)c1 test_result=-0.3
compound=CCCC=C(CCC)[C@@H](NC(=O)c1ccc(C(F)(F)F)cc1)c1ccc(C(F)(F)F)cc1 test_result=0.625
compound=COC(=O)[C@H](Cc1ccc(O)cc1)N[C@@H](/C=C/C1CC1)[C@H](O)Cc1ccccc1 test_result=-0.262
compound="CC(C)C(O)C1C=CC2C(=O)NC(=O)C2N1Nc1ccccn1 (centres undefined)" test_result=0.359
compound="OCCCC1=CC(c2ccc(CN3CCCC3)cc2)N(Cc2cccc(OC(F)(F)F)c2)CC1 (centres undefined)" test_result=0.373
compound=C[C@]1(C(=O)O)c2ccccc2C(=O)N(Cc2cc(F)cc(C(F)(F)F)c2)[C@H]1c1ccc(CO)cc1 test_result=-0.25
compound=COc1ccc(C(=O)Nc2cccc(CN3C(=O)[C@]4(O[C@H](CC(=O)N5Cc6ccccc6C[C@H]5CO)[C@@H]([Si](C)(C)c5ccc(OC)cc5)[C@@H]4C)c4ccccc43)c2)cc1 test_result=-0.24
compound="O=C1C2C=CC(C(O)c3c(F)cccc3Cl)N(Nc3ccc([N+](=O)[O-])cc3)C2C(=O)N1c1ccccc1 (centres undefined)" test_result=0.0505
compound="C=CCC(OC(C)=O)[C@@H]1[C@@H](N(Cc2ccc(-c3cccc(C(F)(F)F)c3)o2)C(=O)Cc2ccc(F)cc2)c2cc(OCCCO)ccc2N1C(=O)Cc1ccc2ccccc2c1 (some centres undefined)" test_result=0.136
compound=CCOC(=O)c1cn(C[C@H](Cc2ccccc2)NC(=O)N[C@H](CO)CCc2oc(C(C)=O)c(C(=O)OC)c2C(=O)OC)nn1 test_result=-0.562
compound=CCCC[C@H]1OB(O)C[C@H]2C1=C(COc1ccccc1)C[C@H]1C(=O)C=CC(=O)[C@H]12 test_result=-0.315
compound="NC(=O)N1C(=O)C2C(C1=O)C1C=C(CCCO)C2C(c2ccc(CN3CCCC3)cc2)N1Cc1sc2ccccc2c1Cl (centres undefined)" test_result=-0.161
compound=C=CCNC(=O)[C@@H]1[C@H]2C(=O)O[C@H](c3ccccc3)[C@H](c3ccccc3)N2[C@H](c2ccc(OCCO)cc2)[C@@]12C(=O)Nc1ccc(C#CC3(O)CCCCCC3)cc12 test_result=0.0068
compound=COC(=O)C(CC#Cc1ccc2c(c1)[C@]1(C(=O)N2)[C@H](C(=O)N2CCc3cc(OC)c(OC)cc3C2)[C@H]2C(=O)O[C@H](c3ccccc3)[C@H](c3ccccc3)N2[C@@H]1c1ccccc1OCCO)C(=O)OC test_result=-0.385

====

# Assay Remarks: S6 kinase pathway phospho-S6 level changes – cell-based, A549, cytoblot, luminescence, serum-stimulated, primary screen (AID 1158);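 also: serum-stimulated A549 lung adenocarcinoma cells; signal is phosphorylated S6 detected by cytoblot immunostaining with HRP secondary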
# Measurement Parameters: 5 h, higher = more signal
Given measured z-score, output True if it is greater than or equal to -0.2 and False if not.

compound=O=C(N1CCOCC1)[C@@]1(Cc2ccccc2)COC(c2ccc(OCCCO)cc2)=N1 category_label=True
compound=C=C(CCCC)C(=O)CC[C@H](OC(=O)c1ccccc1-c1ccccc1C(=O)O)c1ccc(OCCO)cc1 category_label=False
compound="N#Cc1ccc(NN2C(C(O)C3CC=CCC3)C=CC3C(=O)N(c4ccccc4)C(=O)C32)cc1 (stereo unspecified)" category_label=False
compound=COc1ccc([Si](C)(C)[C@H]2[C@H](CC(=O)N3CCC[C@H]3CO)O[C@@]3(C(=O)N(Cc4ccc(N5CCCCC5=O)cc4)c4ccccc43)[C@@H]2C)cc1 category_label=True
compound=[N-]=[N+]=Nc1ccccc1C[C@]1(C(=O)N2CCOCC2)N=C(c2ccc(OCCCO)cc2)O[C@H]1c1ccccc1N=[N+]=[N-] category_label=True
compound=CCCNC(=O)[C@@]1(c2ccc([N+](=O)[O-])cc2)CC(=O)N(C(C)C)[C@@H]1c1ccc(CO)cc1 category_label=True
compound=O=C(NCc1ccccc1)[C@@H]1c2ccccc2C(=O)N(Cc2ccc(OC(F)(F)F)cc2)[C@H]1c1ccc(CO)cc1 category_label=True
compound=COC(=O)[C@]1(Cc2ccccc2)N=C(c2ccc(OCCCO)cc2)O[C@@H]1c1ccccc1CN=[N+]=[N-] category_label=True
compound="CC(=O)OCC1C2CC[C@H]3C(OCc4ccc(F)cc4C(F)(F)F)OC[C@]4(C)[C@H]3C2=C(CN4C(=O)OC(C)(C)C)[C@H](C)C1COC(C)=O (stereo partly specified)" category_label=False
compound="O=C(NCC(O)CO)[C@@]1(CCS(=O)(=O)c2ccccc2)N=C(c2ccc(OCCCO)cc2)O[C@H]1c1ccccc1 (stereo partly specified)" category_label=True
compound="CC(C)OC(=O)CC(=O)CC(O)c1cccc([N+](=O)[O-])c1 (stereo unspecified)" category_label=True
compound=COC(=O)[C@@]1(Cc2ccc(F)cc2)[C@H]2c3cc(C(=O)N(C)C)n(C)c3C[C@H]2CN1C(=O)c1ccccc1 category_label=False
compound=C=C(CCCC)/C(=C/C[C@H](OC(=O)c1ccncc1)c1cccc(OCCO)c1)c1cnc2ccccc2c1 category_label=False
compound="CCOc1cc(C(O)C2C=CC3C(=O)N(c4ccccc4)C(=O)C3N2Nc2ccccc2F)ccc1O (stereo unspecified)" category_label=False
compound="COc1ccc(C(O)C2C=CC3C(=O)N(c4ccccc4)C(=O)C3N2Nc2ccc(C#N)cc2)cc1OCc1ccccc1 (stereo unspecified)" category_label=False
compound=Cc1ccc(S[C@]2(C(=O)NCCCN(C)C)CC(=O)N(Cc3ccccc3C(F)(F)F)[C@@H]2c2ccc(CO)cc2I)cc1 category_label=False

====

# Tested on: Noggin (protein binding on small-molecule microarray)
# Assay Remarks: small molecules binding Noggin protein – biochemical, 635/667 nm fluorescence, primary screen (AID 1095);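 also: score merges 667 nm feature fluorescence with signal to noise over triplicate slides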
# Measurement Parameters: 635 nm fluorescence, higher = more signal
Test Readout: composite z-score

compound="CC(C)C[C@H]1NC(=O)C([C@@H](C)OCc2ccccc2)NC(=O)[C@@]23C(=O)N[C@@H](Cc4ccccc4)C2[C@H](C)[C@@]2(C)O[C@H]2C3/C=C/C/C=C\\CNC1=O (stereo not given in full)" assayed_system="Noggin (protein binding on small-molecule microarray)" test_readout="composite z-score" test_result=0.697
compound=O=C1[C@H]2C=C(I)[C@H](C[C@@H]2OCCCCCCO)[C@@]12CO2 assayed_system="Noggin (protein binding on small-molecule microarray)" test_readout="composite z-score" test_result=0.263
compound="C=CC1c2cc(O)c(OC)cc2CCN1C (stereo not given)" assayed_system="Noggin (protein binding on small-molecule microarray)" test_readout="composite z-score" test_result=-0.542
compound=COc1ccc(C(=O)Nc2ccc(CN3C(=O)[C@@]4(O[C@@H](CCn5cc(CCO)nn5)[C@H]([Si](C)(C)c5ccc(OC)cc5)[C@H]4C)c4ccccc43)cc2)cc1 assayed_system="Noggin (protein binding on small-molecule microarray)" test_readout="composite z-score" test_result=0.926
compound=O=C1[C@H]2C=C(I)[C@H](C[C@@H]2c2ccccc2)[C@@]12CO2 assayed_system="Noggin (protein binding on small-molecule microarray)" test_readout="composite z-score" test_result=0.355
compound=C=CCOC(=O)[C@@H]1[C@H]2C(=O)O[C@H](c3ccccc3)[C@H](c3ccccc3)N2[C@H](c2ccc(OCCOC(=O)[C@H]3C[C@H]4C(=O)N5CCC[C@H]5C(=O)N4[C@H]3c3cccc(OCCO)c3)cc2)[C@@]12C(=O)Nc1ccc(I)cc12 assayed_system="Noggin (protein binding on small-molecule microarray)" test_readout="composite z-score" test_result=1.52
compound=CN(C)CCCNC(=O)[C@@]1(Cc2ccccc2I)c2ccccc2C(=O)N(C2CCCCC2)[C@H]1c1ccc(CO)cc1 assayed_system="Noggin (protein binding on small-molecule microarray)" test_readout="composite z-score" test_result=0.27
compound="NC(=O)N1C(=O)C2C(C1=O)C1C=C(CCCO)C2C(c2ccc(CN3CCCC3)cc2)N1Cc1cc2c(cc1Br)OCO2 (stereo not given)" assayed_system="Noggin (protein binding on small-molecule microarray)" test_readout="composite z-score" test_result=0.208
compound=Cc1ccc(S[C@]2(C(=O)NCc3ccccc3)CC(=O)N(Cc3ccccc3C(F)(F)F)[C@@H]2c2ccc(CO)cc2)cc1 assayed_system="Noggin (protein binding on small-molecule microarray)" test_readout="composite z-score" test_result=-1.16
compound="COc1ccc(NN2C(C(O)c3ccc(I)cc3)C=CC3C(=O)N(C4CCCCC4)C(=O)C32)cc1 (stereo not given)" assayed_system="Noggin (protein binding on small-molecule microarray)" test_readout="composite z-score" test_result=0.715
compound=COC(=O)[C@]1(Cc2ccccc2)N=C(c2ccc(OCCCO)cc2)O[C@@H]1c1ccccc1CN=[N+]=[N-] assayed_system="Noggin (protein binding on small-molecule microarray)" test_readout="composite z-score" test_result=0.615
compound=COC(=O)[C@@]1(Cc2ccc(F)cc2)[C@H]2c3cc(C(=O)N4CCCC4)n(Cc4ccccn4)c3C[C@H]2CN1C(=O)c1ccccc1 assayed_system="Noggin (protein binding on small-molecule microarray)" test_readout="composite z-score" test_result=-0.108
compound=CN(C)CCCC[C@@H]1NC(=O)[C@H]2C[C@@H](C(=O)O)[C@@H](c3ccc(O)cc3)N2C1=O assayed_system="Noggin (protein binding on small-molecule microarray)" test_readout="composite z-score" test_result=2.16
compound=C[C@@H]1ON(c2ccccc2)[C@H](c2ccccc2)[C@H]1C(=O)O assayed_system="Noggin (protein binding on small-molecule microarray)" test_readout="composite z-score" test_result=0.175
compound=O=C1C[C@@](C(=O)NCc2ccccc2)(c2ccc([N+](=O)[O-])cc2)[C@@H](c2ccc(CO)cc2)N1C1CCCCC1 assayed_system="Noggin (protein binding on small-molecule microarray)" test_readout="composite z-score" test_result=0.65
compound=COCCCNC(=O)[C@@]1(CCC(=O)OC(C)(C)C)COC(c2ccc(OCCCO)cc2)=N1 assayed_system="Noggin (protein binding on small-molecule microarray)" test_readout="composite z-score" test_result=0.337
compound=CC(C)N1C(=O)c2ccccc2[C@@H](C(=O)NCC(F)(F)F)[C@@H]1c1ccc(CO)cc1 assayed_system="Noggin (protein binding on small-molecule microarray)" test_readout="composite z-score" test_result=0.157
compound=[N-]=[N+]=Nc1ccccc1C[C@]1(C(=O)N2CCOCC2)N=C(c2ccc(OCCCO)cc2)O[C@H]1c1ccccc1N=[N+]=[N-] assayed_system="Noggin (protein binding on small-molecule microarray)" test_readout="composite z-score" test_result=1.61
compound="COC(=O)C1=CC(CCCO)=CC(c2cccs2)N(Cc2cc3c(cc2Br)OCO3)C=C1C(=O)OC (stereo not given)" assayed_system="Noggin (protein binding on small-molecule microarray)" test_readout="composite z-score" test_result=0.404
compound=CCOC(=O)C[C@H]1[C@H](OC(=O)Cc2ccc3c(c2)OCO3)[C@@H](NC(=O)c2ccc3ccccc3n2)c2cc(OCCCO)ccc2N1C(=O)Cc1ccc(OC)cc1 assayed_system="Noggin (protein binding on small-molecule microarray)" test_readout="composite z-score" test_result=1.25
compound=COc1ccc([Si](C)(C)[C@@H]2[C@@H](CC(=O)N(CCO)Cc3ccccc3)O[C@]3(C(=O)N(Cc4ccc(N5C(=O)c6cccc7cccc5c67)cc4)c4ccccc43)[C@H]2C)cc1 assayed_system="Noggin (protein binding on small-molecule microarray)" test_readout="composite z-score" test_result=0.77
compound=CCCNC(=O)[C@@]1(Sc2ccc(C)cc2)CC(=O)N(Cc2ccccc2Cl)[C@@H]1c1ccc(CO)cc1I assayed_system="Noggin (protein binding on small-molecule microarray)" test_readout="composite z-score" test_result=-1.24
compound=COC(=O)C[C@H]1O[C@@]2(C[C@@H]1[Si](C)(C)C)C(=O)N(C)c1ccccc12 assayed_system="Noggin (protein binding on small-molecule microarray)" test_readout="composite z-score" test_result=0.297
compound=CCOC(=O)C[C@H]1[C@H](OC(=O)c2ccccc2-c2ccccc2)[C@@H](NC(=O)c2ccc3ccccc3c2)c2cc(OCCCO)ccc2N1C(=O)Cc1ccc(OC)cc1 assayed_system="Noggin (protein binding on small-molecule microarray)" test_readout="composite z-score" test_result=-0.206
compound=CCCC=C(CCC)[C@@H](NC(=O)c1ccc(C(F)(F)F)cc1)c1ccc(C(F)(F)F)cc1 assayed_system="Noggin (protein binding on small-molecule microarray)" test_readout="composite z-score" test_result=-0.0005
compound=CN(C)CCCC[C@@H]1NC(=O)[C@@H]2C[C@H](C(=O)NCCCCCN)[C@H](c3cccc(OCCO)c3)N2C1=O assayed_system="Noggin (protein binding on small-molecule microarray)" test_readout="composite z-score" test_result=1.17
compound=O=C(N1CCOCC1)[C@@]1(Cc2ccccc2)COC(c2ccc(OCCCO)cc2)=N1 assayed_system="Noggin (protein binding on small-molecule microarray)" test_readout="composite z-score" test_result=-0.622
compound=CC(C)N1C(=O)c2ccccc2[C@](C)(C(=O)NCC(F)(F)F)[C@@H]1c1ccc(CO)cc1 assayed_system="Noggin (protein binding on small-molecule microarray)" test_readout="composite z-score" test_result=-1.4
compound=O=C1O[C@H](c2ccccc2)[C@H](c2ccccc2)N2[C@H]1[C@@H](C(=O)O)[C@]1(C(=O)Nc3ccc(C#CCCO)cc31)[C@H]2c1ccc(OCCO)cc1 assayed_system="Noggin (protein binding on small-molecule microarray)" test_readout="composite z-score" test_result=0.452
compound=CCCC#C[Si](O[C@H](CC)c1cn(Cc2ccccc2)nn1)(C(C)C)C(C)C assayed_system="Noggin (protein binding on small-molecule microarray)" test_readout="composite z-score" test_result=1.31
